Hey, just so you know, these numbers are from patent US9556165B2.

The reader will find reported MIC values listed item by item below.
# Test system: M. catarrhalis ICB489
# Protocol text: MIC determination, broth microdilution (CLSI)
# Assay type: cell-based
# Cond: Moraxella catarrhalis, ICB489, strain 12

CC1(C)[C@H](NC(=O)/C(=N\OCCOc2ccc(C(=N)NC3CCNCC3)cc2)c2csc(N)n2)C(=O)N1OS(=O)(=O)O = ≤ 0.063 µg/mL

Turning now to a further record.
Form: Entry = `C[C@H]1[C@H](NC(=O)/C(=N\OCCOc2ccc(C(=N)N)nn2)c2csc(N)n2)C(=O)N1S(=O)(=O)O` | System = M. catarrhalis ICB489 | MIC = ____
0.25 µg/mL
